Tested on: EVSA-T (human breast carcinoma)
Experiment: Anti-proliferative activity, Alamar Blue assay, EVSA-T
Assay type: cell-based
Details: Homo sapiens, EVSA-T; read-out: EC50 in EVSA-T cell line assays
pEC50: −log10 of the molar value. Structures can show the parent of a compound that is named as a salt.
assay readout: pEC50

Write down pEC50 measured for item C[C@@H]1CN(CC(=O)N2CC(C)(C)c3ncc(Cc4ccc(F)cc4)cc32)[C@@H](CN2CCOCC2(C)CO)CN1 (stereo partly drawn) [Example 47, dihydrochloride]
> 6.00

Write down pEC50 measured for item CCCC(O)c1cnc2c(c1)N(C(=O)CN1C[C@@H](C)NC[C@@H]1CN1[C@H](C)COC[C@H]1C)CC2(C)C (single isomer, unassigned) [Example 101, dihydrochloride]
> 6.00

Write down pEC50 measured for item CCCC(F)(F)c1cc2c(cn1)C(C)(C)CN2C(=O)CN1C[C@@H](C)NC[C@@H]1CN1[C@H](C)CN(C(C)=O)C[C@@H]1C [Example 93, dihydrochloride]
> 6.00

---

Target: BIR3 domain of human XIAP (Homo sapiens, UniProt P98170)
Construct: BIR3 domain of human XIAP (residues 252-350) fused to a His-tag; His-tag (cleaved yes); made in house; host or cells: Escherichia coli
Sequence (P98170 252-350): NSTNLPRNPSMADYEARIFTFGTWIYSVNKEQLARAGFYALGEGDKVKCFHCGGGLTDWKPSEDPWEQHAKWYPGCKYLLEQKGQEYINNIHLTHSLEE
Test: XIAP in vitro competitive displacement binding assay (fluorescence polarization)
Conditions: plain number = IC50; average where more than one data point; read-out: Xiap IC50 or PI μM (IC50)
Where a name gives a salt, the structure may show the parent alone.
assay readout: IC50 (µM)
Return type: number; implicit unit µM.

Write down IC50 measured for item C[C@@H]1CN(CC(=O)N2CC(C)(C)c3ncc(Cc4ccc(F)cc4)cc32)[C@@H](CN2CCOCC2(C)C(=O)O)CN1 (stereo partly shown) [Example 59, dihydrochloride]
0.34

Write down IC50 measured for item C[C@@H]1CN(CC(=O)N2CC(C)(C)c3ncc(Cc4ccc(F)cc4)cc32)[C@@H](CN2CCCNC(=O)C2)CN1 [Example 46, dihydrochloride]
0.13

Write down IC50 measured for item C[C@@H]1CN(CC(=O)N2CC(C)(C)c3ncc(Cc4ccc(F)cc4)cc32)[C@@H](CN2CCCCC2C(F)(F)F)CN1 (single isomer, unassigned) [Example 26, hydrochloride]
0.21

Write down IC50 measured for item C[C@@H]1CN(CC(=O)N2CC(C)(C)c3ncc(Cc4ccc(F)cc4)cc32)[C@@H](CN2CCC[C@H]2CO)CN1 [Example 12, dihydrochloride]
0.15

---

Tested on: EVSA-T (human breast carcinoma)
Experiment: Anti-proliferative activity, Alamar Blue assay, EVSA-T
Assay type: cell-based
Details: Homo sapiens, EVSA-T, 72 h, EVSA-T cells, 72 hours, Alamar Blue; read-out: EVSA-T prolif
Structures can show the parent of a compound that is named as a salt.
assay readout: EC50 (nM)
Return type: number; implicit unit nM.

Write down EC50 measured for item C[C@@H]1CN(CC(=O)N2CC(C)(C)c3cnc(Cc4ccc(F)cc4F)cc32)[C@@H](CN2[C@H](C)COC[C@H]2C)CN1 [Example 63, dihydrochloride]
0.48

Write down EC50 measured for item CC1COCCN1C[C@H]1CN[C@H](C)CN1CC(=O)N1CC(C)(C)c2ccc(Cc3ccc(F)cc3)cc21 (stereo partly drawn) [Example 45, dihydrochloride]
3.5

Write down EC50 measured for item CCCC(F)(F)c1cc2c(cn1)C(C)(C)CN2C(=O)CN1C[C@@H](C)NC[C@@H]1CN1CCOC[C@]1(C)CO (single isomer, unassigned) [Example 69, dihydrochloride]
5.6
